Values from patent US9353090B2

- procedureText: physchem
- experimentalConditions: pH 4.5, aqueous buffer, kinetic from dmso stock, Solubility (pH 4.5)
assayReadout: solubility at 24 h (µg/mL)

CO[C@@H]1CN(c2cccc(-c3cccc(C)c3OCc3cc(C)c4c(c3)CCN(C3CCOCC3)C4)n2)CC[C@H]1C(=O)O
90.8
CO[C@@H]1CN(c2cccc(-c3cccc(C)c3OCc3ccc4c(c3)C(C)(C)CN(C3COC3)CC4)n2)CC[C@@H]1C(=O)O
91.1
COc1cc(COc2c(C)cccc2-c2csc(N3CC[C@@H](C(=O)O)[C@@H](OC)C3)n2)cc2c1CN([C@@H]1CCOC1)CC2
88.2

###

- procedureText: physchem
- experimentalConditions: pH 2.2, aqueous buffer, kinetic from dmso stock, Solubility (pH 2.2)
assayReadout: solubility at 24 h (µg/mL)

Sample records with solubility at 24 h:
COC[C@H]1N(c2cccc(-c3cccc(C)c3OCc3ccc4c(c3)CCN(C3COC3)C4)n2)C[C@@H]2C[C@@]21C(=O)O
140
CCO[C@H]1CN(c2nc(-c3cccc(Cl)c3OCc3cc4c(c(OC)c3)CN(C3CCOCC3)CC4)cs2)CC[C@H]1C(=O)O
116
CO[C@@H]1CN(c2cccc(-c3cccc(C)c3OCc3ccc4c(c3C)CCN([C@H]3CCOC3)CC4)n2)CC[C@@H]1C(=O)O
141
Cc1ccc(OCc2ccc3c(c2C)CCN(C2COC2)C3)c(-c2cccc(N3C[C@@H]4C[C@]4(C(=O)O)C3)n2)c1
100
Cc1cccc(-c2cccc(N3C[C@@H]4C[C@]4(C(=O)O)C3)n2)c1OCc1ccc2c(c1C)CCN(C1COC1)CC2
110
CO[C@@H]1CN(c2cccc(-c3cccc(C)c3OCc3cc(C)c4c(c3)CN(C3CCOCC3)C4)n2)CC[C@@H]1C(=O)O
132
CCO[C@@H]1CN(c2cccc(-c3cccc(C)c3OCc3ccc4c(c3C)CCN(C3CCOCC3)CC4)n2)CC[C@@H]1C(=O)O
126
COC[C@H]1N(c2cccc(-c3cccc(C)c3OCc3ccc4c(c3)CCN(C3CCOCC3)C4)n2)C[C@@H]2C[C@@]21C(=O)O
130

(P) CO[C@@H]1CN(c2cccc(-c3cccc(C)c3OCc3ccc4c(c3C)CCN(C3CCOC3)CC4)n2)CC[C@@H]1C(=O)O (stereo partly shown)
(Q) CO[C@H]1CN(c2nc(-c3cc(C)ccc3OCc3ccc4c(c3C)CCN(C3CCOCC3)C4=O)cs2)CC[C@H]1C(=O)O
Pick one: P or Q . Which has the bigger solubility at 24 h number? I would appreciate it if you answered with the label of your choice.
P
(P: 124 µg/mL, Q: 56.8 µg/mL)

(P) COC[C@H]1N(c2nc(-c3cc(C)ccc3OCc3ccc4c(c3)CCN(C3CCOCC3)C4)cs2)C[C@@H]2C[C@@]21C(=O)O
(Q) CCO[C@H]1CN(c2cccc(-c3cccc(Cl)c3OCc3cc4c(c(OC)c3)CN(C3CCOCC3)CC4)n2)CC[C@H]1C(=O)O
Pick one: P or Q . Which has the bigger solubility at 24 h number? I would appreciate it if you answered with the label of your choice.
Q

(I) COC[C@H]1N(c2cccc(-c3cccc(C)c3OCc3ccc4c(c3C)CN(C3CCOCC3)C4)n2)C[C@@H]2C[C@@]21C(=O)O
(II) CO[C@@H]1CN(c2cccc(-c3cccc(C)c3OCc3ccc4c(c3)CCN(C3CCOCC3)C4)n2)CC[C@@H]1C(=O)O
Pick one: I or II . Which has the bigger solubility at 24 h number? I would appreciate it if you answered with the label of your choice.
I

###

- testedTarget: human soluble guanylate cyclase alpha 1 and beta 1 subunits (sGC) (Homo sapiens (Human), UniProt Q02108+Q02153)
- Sequence (Q02108 whole entry partner): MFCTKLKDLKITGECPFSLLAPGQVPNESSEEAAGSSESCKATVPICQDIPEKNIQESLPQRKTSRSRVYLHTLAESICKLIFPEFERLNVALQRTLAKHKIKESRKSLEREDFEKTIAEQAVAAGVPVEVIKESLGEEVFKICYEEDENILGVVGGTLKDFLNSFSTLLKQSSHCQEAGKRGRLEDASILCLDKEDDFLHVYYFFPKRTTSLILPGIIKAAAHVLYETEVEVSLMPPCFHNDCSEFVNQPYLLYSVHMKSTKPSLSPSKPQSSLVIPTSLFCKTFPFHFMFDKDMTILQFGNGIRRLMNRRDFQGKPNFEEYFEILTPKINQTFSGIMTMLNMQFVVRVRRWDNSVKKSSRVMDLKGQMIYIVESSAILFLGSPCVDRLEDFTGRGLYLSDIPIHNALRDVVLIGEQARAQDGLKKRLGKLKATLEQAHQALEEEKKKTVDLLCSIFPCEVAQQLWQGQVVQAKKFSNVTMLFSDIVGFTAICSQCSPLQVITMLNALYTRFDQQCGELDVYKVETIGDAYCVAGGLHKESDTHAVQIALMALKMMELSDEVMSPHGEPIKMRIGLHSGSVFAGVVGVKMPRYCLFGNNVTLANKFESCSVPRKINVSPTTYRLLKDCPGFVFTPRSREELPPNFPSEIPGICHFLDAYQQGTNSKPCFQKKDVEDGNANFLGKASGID
- Sequence (Q02153 whole entry): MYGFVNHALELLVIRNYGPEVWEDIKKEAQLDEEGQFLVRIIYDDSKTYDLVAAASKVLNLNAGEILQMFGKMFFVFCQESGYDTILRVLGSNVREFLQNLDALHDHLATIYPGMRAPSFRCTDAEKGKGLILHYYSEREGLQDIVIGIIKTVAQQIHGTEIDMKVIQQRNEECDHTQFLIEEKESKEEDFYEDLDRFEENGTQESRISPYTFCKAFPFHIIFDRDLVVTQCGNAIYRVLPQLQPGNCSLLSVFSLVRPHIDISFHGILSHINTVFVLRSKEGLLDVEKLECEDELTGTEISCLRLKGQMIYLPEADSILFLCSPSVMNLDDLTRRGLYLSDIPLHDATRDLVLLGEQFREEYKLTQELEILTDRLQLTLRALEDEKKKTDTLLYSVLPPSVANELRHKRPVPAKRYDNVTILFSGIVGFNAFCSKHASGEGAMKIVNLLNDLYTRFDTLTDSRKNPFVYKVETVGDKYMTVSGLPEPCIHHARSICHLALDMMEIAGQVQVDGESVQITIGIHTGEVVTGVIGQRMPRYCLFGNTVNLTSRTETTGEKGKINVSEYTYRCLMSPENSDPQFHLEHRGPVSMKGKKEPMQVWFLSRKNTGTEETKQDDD
- procedureText: sGC cellular activator assay (cGMP, HTRF), in the presence and absence of 50% human serum
- experimentalConditions: CHO cells stably expressing human sGC alpha 1/beta 1, preincubated with 40 microM ODQ; cGMP by HTRF; Table 2 does not state whether with or without 50% human serum
assayReadout: EC50 (nM)

Cc1c(COc2ccccc2-c2cccc(N3CC[C@@]4(C(=O)O)C[C@H]4C3)n2)ccc2c1CCN(Cc1cncn1C)C2
10
Cc1c(COc2ccccc2-c2cccc(N3CC[C@@]4(C(=O)O)C[C@H]4C3)n2)ccc2c1CCN([C@@H]1CCOC1)C2
12

(P) CO[C@H]1CN(c2cccc(-c3cc(C)ccc3OCc3ccc4c(c3C)CCN(C3CCOCC3)CC4)n2)CC[C@H]1C(=O)O
(Q) Cc1ccc(OCc2cc(C)c3c(c2)CCN(C2CCCOC2)C3)c(-c2csc(N3CC[C@@]4(C(=O)O)C[C@H]4C3)n2)c1 (mixture of isomers)
(R) Cc1ccc(OCc2ccc3c(c2C)CCN(C2CCOC2)CC3)c(-c2csc(N3CC[C@@]4(C(=O)O)C[C@H]4C3)n2)c1 (stereo partly shown)
(S) COC[C@H]1N(c2cccc(-c3cccc(C)c3OCc3ccc4c(n3)CCN(C3CCOCC3)C4)n2)C[C@@H]2C[C@@]21C(=O)O
I would appreciate it if you could sort these 4 compounds by EC50, starting from the smallest number. Return value: ordered labels per request.
Q, R, P, S

###

- procedureText: physchem
- experimentalConditions: pH 4.5, aqueous buffer, kinetic from dmso stock, Solubility (pH 4.5)
assayReadout: solubility at 24 h (mg/mL)

Sample records with solubility at 24 h:
Cc1cccc(-c2csc(N3CC[C@@]4(C(=O)O)C[C@H]4C3)n2)c1OCc1ccc2c(c1)CCN(C1CCOCC1)C2 [Compound 84]
0.07
COC[C@H]1N(c2nc(-c3cccc(C)c3OCc3ccc4c(c3C)CCN(C3CCOCC3)C4)cs2)C[C@@H]2C[C@@]21C(=O)O [Compound 159]
0.095

(1) CCO[C@@H]1CN(c2nc(-c3cccc(C)c3OCc3cc(OC)c4c(c3F)CCN(C3CCOCC3)C4)cs2)CC[C@@H]1C(=O)O [Compound 270]
(2) Cc1cc(COc2c(C)cccc2-c2csc(N3CC[C@@]4(C(=O)O)C[C@H]4C3)n2)c(C)c2c1CN(C1COC1)CC2 [Compound 102]
Between the entries labeled 1 and 2 , whose measured solubility at 24 h is lower? I would appreciate it if you answered with the label of your choice.
2

###

- procedureText: physchem
- experimentalConditions: pH 4.5, aqueous buffer, kinetic from dmso stock, Solubility (pH 4.5)
assayReadout: solubility at 24 h (µg/mL)

CO[C@@H]1CN(c2cccc(-c3cccc(C)c3OCc3ccc4c(c3)CCN(C3CCOCC3)C4)n2)CC[C@@H]1C(=O)O
92
Cc1ccc(OCc2ccc3c(c2)CCN(C2CCOCC2)C3)c(-c2csc(N3C[C@@H]4C[C@]4(C(=O)O)C3)n2)c1
62
CCO[C@H]1CN(c2nccc(-c3cccc(C)c3OCc3ccc4c(c3C)CCN(C3CCOCC3)CC4)n2)CC[C@H]1C(=O)O
81.3
COC[C@H]1N(c2cccc(-c3cccc(C)c3OCc3cc(C)c4c(c3)CCN(C3COC3)C4)n2)C[C@@H]2C[C@@]21C(=O)O
95
Cc1cc(COc2c(C)cccc2-c2csc(N3CC[C@@]4(C(=O)O)C[C@H]4C3)n2)c(C)c2c1CN(CC1COCCO1)CC2 (some centres unmarked)
75
COC[C@H]1N(c2cccc(-c3cccc(C)c3OCc3cc(F)c4c(c3)CCN(C3CCOCC3)C4)n2)C[C@@H]2C[C@@]21C(=O)O
139
Cc1cccc(-c2csc(N3C[C@@H]4C[C@]4(C(=O)O)C3)n2)c1OCc1ccc2c(c1C)CCN(C1COC1)C2
59
CO[C@H]1CN(c2nc(-c3cccc(C)c3OCc3cc(C)c4c(c3)CCN(C3COC3)CC4)cs2)CC[C@H]1C(=O)O
77.7

(1) Cc1ccc(OCc2ccc3c(c2C)CCN(C2CCOCC2)C3)c(-c2cccc(N3CC[C@@]4(C(=O)O)C[C@H]4C3)n2)c1
(2) Cc1cccc(-c2ccnc(N3C[C@@H]4C[C@]4(C(=O)O)C3)n2)c1OCc1ccc2c(c1C)CCN(C1CCOCC1)C2
Pick one: 1 or 2 . Which has the bigger solubility at 24 h number? I would appreciate it if you answered with the label of your choice.
1

###

- testedTarget: human soluble guanylate cyclase alpha 1 and beta 1 subunits (sGC) (Homo sapiens (Human), UniProt Q02108+Q02153)
- procedureText: sGC cellular activator assay (cGMP, HTRF), in the presence and absence of 50% human serum
- experimentalConditions: CHO cells stably expressing human sGC alpha 1/beta 1, preincubated with 40 microM ODQ; cGMP by HTRF; Table 2 does not state whether with or without 50% human serum
assayReadout: EC50 (nM)

Sample records with EC50:
COC[C@H]1N(c2cccc(-c3cccc(Cl)c3OCc3cc(C)c4c(c3)CCN(C3CCOCC3)C4)n2)C[C@@H]2C[C@@]21C(=O)O [Compound 221]
12
Cc1ccc(OCc2ccc3c(c2C)CCN(C2COC2)C3)c(-c2cccc(N3CC[C@@]4(C(=O)O)C[C@H]4C3)n2)c1 [Compound 19]
8
Cc1cc(COc2c(C)cccc2-c2cccc(N3C[C@@H]4C[C@]4(C(=O)O)C3)n2)cc2c1CN(C1CCOC1)CC2 (stereo partly drawn) [Compound 26]
9

(A) Cc1cccc(-c2cccc(N3C[C@@H]4C[C@]4(C(=O)O)C3)n2)c1OCc1ccc2c(c1C)CCN(C1CCOCC1)C2 [Compound 21]
(B) COCc1cc(COc2c(C)cccc2-c2cccc(N3CC[C@H](C(=O)O)[C@H](OC)C3)n2)cc2c1CN(C1CCOCC1)CC2 [Compound 286]
(C) COCc1cc(COc2c(C)cccc2-c2cccc(N3C[C@@H]4C[C@]4(C(=O)O)[C@H]3COC)n2)cc2c1CN(C1CCOCC1)CC2 [Compound 279]
I would appreciate it if you could sort these 3 molecules by EC50, starting from the smallest number. Return value: ordered labels per request.
A, C, B
(A: 11 nM, C: 65 nM, B: 160 nM)
